# ASSAY_REMARKS: Ex vivo biodistribution in H69-tumor bearing mice
# RUN_CONDITIONS: mouse, in vivo, iv, Uptake in Lungs, 4 h p.i., n = 4
READOUT_LABEL: tissue uptake at 4 h (%ID/g)
Numbers only, in %ID/g.

Per the record, C[C@@H](O)[C@H](NC(=O)[C@@H]1CSSC[C@H](NC(=O)[C@@H](Cc2ccccc2)NC(=O)CN2CCN(CC(=O)O)CCN(CC(=O)O)CCN(CC(=O)O)CC2)C(=O)N[C@@H](Cc2ccc(O)cc2)C(=O)N[C@H](Cc2c[nH]c3ccccc23)C(=O)N[C@@H](CCCCN)C(=O)N[C@@H]([C@@H](C)O)C(=O)N1)C(=O)O [[^111In]In-DOTA-TATE, metal not drawn, reference compound] has tissue uptake at 4 h of 0.52

Recorded values, source paper PMC11111636.
